Target or system Escherichia coli DC 2; recorded quantity MIC.
Write it as a number; the unit µg/mL goes unstated.

Param item = CC[N+](C)(CC=CC(N)=O)C/C=C/C1=C(C(=O)[O-])N2C(=O)[C@@H](NC(=O)/C(=N\OCCF)c3nsc(N)n3)[C@H]2SC1 (some centres unmarked) [Example 15] ; retrieve measured MIC.
0.1

What do you get for CO/N=C(\C(=O)N[C@@H]1C(=O)N2C(C(=O)[O-])=C(C[n+]3cccc4c3CCC4)CS[C@H]12)c1csc(N)n1 [CPR, Cefpirome, reference compound] ?
0.1

What do you get for CC[N+](C)(CC=CC(N)=O)C/C=C/C1=C(C(=O)[O-])N2C(=O)[C@@H](NC(=O)/C(=N\OC)c3csc(N)n3)[C@H]2SC1 (some centres unmarked) [Example 6] ?
0.05

What do you get for CC[N+](C)(CC=CC(N)=O)C/C=C/C1=C(C(=O)[O-])N2C(=O)[C@@H](NC(=O)/C(=N\OCCF)c3csc(N)n3)[C@H]2SC1 (some centres unmarked) [Example 12] ?
0.05

What do you get for CO/N=C(\C(=O)N[C@@H]1C(=O)N2C(C(=O)[O-])=C(/C=C/C[N+](C)(C)Cc3scnc3C)CS[C@H]12)c1csc(N)n1 [Example 1] ?
0.05

What do you get for CC[N+](C)(CC=CC(N)=O)C/C=C/C1=C(C(=O)[O-])N2C(=O)[C@@H](NC(=O)/C(=N\OC)c3nsc(N)n3)[C@H]2SC1 (some centres unmarked) [Example 13] ?
0.2

What do you get for Cc1ncsc1C[N+](C)(C)C/C=C/C1=C(C(=O)[O-])N2C(=O)[C@@H](NC(=O)/C(=N\OCCF)c3nsc(N)n3)[C@H]2SC1 [Example 14] ?
0.05

What do you get for CO/N=C(\C(=O)N[C@@H]1C(=O)N2C(C(=O)O)=C(COC(C)=O)CS[C@H]12)c1csc(N)n1 [CTX, Cefotaxime, reference compound] ?
0.05

###

assay: Acute toxicity study; format: in vivo; settings: mouse, in vivo, sc; subcutaneous routes; read-out: acute toxicity in subcutaneous routes
property-measured: LD50 at 168 h

Param item = CO/N=C(\C(=O)N[C@@H]1C(=O)N2C(C(=O)[O-])=C(/C=C/C[N+](C)(C)Cc3scnc3C)CS[C@H]12)c1csc(N)n1 [Example 1] ; retrieve measured LD50 at 168 h.
> 3000 mg/kg

###

Target or system Escherichia coli 078; recorded quantity MIC.
Write it as a number; the unit µg/mL goes unstated.

Param item = CO/N=C(\C(=O)N[C@@H]1C(=O)N2C(C(=O)[O-])=C(C[n+]3cccc4c3CCC4)CS[C@H]12)c1csc(N)n1 [CPR, Cefpirome, reference compound] ; retrieve measured MIC.
0.025

What do you get for `Cc1ncsc1C[N+](C)(C)C/C=C/C1=C(C(=O)[O-])N2C(=O)[C@@H](NC(=O)/C(=N\OCCF)c3nsc(N)n3)[C@H]2SC1` ?
0.012

What do you get for CC[N+](C)(CC=CC(N)=O)C/C=C/C1=C(C(=O)[O-])N2C(=O)[C@@H](NC(=O)/C(=N\OCCF)c3csc(N)n3)[C@H]2SC1 (some centres unmarked) ?
0.025

What do you get for CC[N+](C)(CC=CC(N)=O)C/C=C/C1=C(C(=O)[O-])N2C(=O)[C@@H](NC(=O)/C(=N\OCCF)c3nsc(N)n3)[C@H]2SC1 (some centres unmarked) ?
0.025

What do you get for CC[N+](C)(CC=CC(N)=O)C/C=C/C1=C(C(=O)[O-])N2C(=O)[C@@H](NC(=O)/C(=N\OC)c3csc(N)n3)[C@H]2SC1 (some centres unmarked) ?
0.12

What do you get for CC[N+](C)(CC=CC(N)=O)C/C=C/C1=C(C(=O)[O-])N2C(=O)[C@@H](NC(=O)/C(=N\OC)c3nsc(N)n3)[C@H]2SC1 (some centres unmarked) ?
0.05

What do you get for CO/N=C(\C(=O)N[C@@H]1C(=O)N2C(C(=O)O)=C(COC(C)=O)CS[C@H]12)c1csc(N)n1 [CTX, Cefotaxime, reference compound] ?
0.025

###

Can you tell me MIC for the items I'm about to list?
system: Pseudomonas aeruginosa 1592E; assay: MIC by agar dilution, in vitro activity test; format: cell-based; conditions: 37° C., 18 to 20 hours, read-out: Minimal Inhibitory Concentration (MIC)
Write it as a number; the unit µg/mL goes unstated.

Param item = Cc1ncsc1C[N+](C)(C)C/C=C/C1=C(C(=O)[O-])N2C(=O)[C@@H](NC(=O)/C(=N\OCCF)c3nsc(N)n3)[C@H]2SC1 [Example 14] ; retrieve measured MIC.
3.1

What do you get for CO/N=C(\C(=O)N[C@@H]1C(=O)N2C(C(=O)O)=C(COC(C)=O)CS[C@H]12)c1csc(N)n1 [CTX, Cefotaxime, reference compound] ?
25

What do you get for CC[N+](C)(CC=CC(N)=O)C/C=C/C1=C(C(=O)[O-])N2C(=O)[C@@H](NC(=O)/C(=N\OC)c3nsc(N)n3)[C@H]2SC1 (some centres unmarked) [Example 13] ?
1.6

What do you get for CC[N+](C)(CC=CC(N)=O)C/C=C/C1=C(C(=O)[O-])N2C(=O)[C@@H](NC(=O)/C(=N\OC)c3csc(N)n3)[C@H]2SC1 (some centres unmarked) [Example 6] ?
3.1

What do you get for CO/N=C(\C(=O)N[C@@H]1C(=O)N2C(C(=O)[O-])=C(/C=C/C[N+](C)(C)Cc3scnc3C)CS[C@H]12)c1csc(N)n1 [Example 1] ?
3.1

What do you get for CC[N+](C)(CC=CC(N)=O)C/C=C/C1=C(C(=O)[O-])N2C(=O)[C@@H](NC(=O)/C(=N\OCCF)c3csc(N)n3)[C@H]2SC1 (some centres unmarked) [Example 12] ?
6.3

What do you get for CO/N=C(\C(=O)N[C@@H]1C(=O)N2C(C(=O)[O-])=C(C[n+]3cccc4c3CCC4)CS[C@H]12)c1csc(N)n1 [CPR, Cefpirome, reference compound] ?
3.1

What do you get for CC[N+](C)(CC=CC(N)=O)C/C=C/C1=C(C(=O)[O-])N2C(=O)[C@@H](NC(=O)/C(=N\OCCF)c3nsc(N)n3)[C@H]2SC1 (some centres unmarked) [Example 15] ?
3.1

###

tested on: Pseudomonas aeruginosa 9027; assay: MIC by agar dilution, in vitro activity test; type: cell-based; conditions: 37° C., 18 to 20 hours, read-out: Minimal Inhibitory Concentration (MIC)
property-measured: MIC (µg/mL)
Write it as a number; the unit µg/mL goes unstated.

# returns recorded MIC (system: Pseudomonas aeruginosa 9027) for CC[N+](C)(CC=CC(N)=O)C/C=C/C1=C(C(=O)[O-])N2C(=O)[C@@H](NC(=O)/C(=N\OC)c3csc(N)n3)[C@H]2SC1 (some centres unmarked)
6.3

What do you get for CO/N=C(\C(=O)N[C@@H]1C(=O)N2C(C(=O)[O-])=C(C[n+]3cccc4c3CCC4)CS[C@H]12)c1csc(N)n1 [CPR, Cefpirome, reference compound] ?
6.3

What do you get for CO/N=C(\C(=O)N[C@@H]1C(=O)N2C(C(=O)O)=C(COC(C)=O)CS[C@H]12)c1csc(N)n1 [CTX, Cefotaxime, reference compound] ?
25

What do you get for CC[N+](C)(CC=CC(N)=O)C/C=C/C1=C(C(=O)[O-])N2C(=O)[C@@H](NC(=O)/C(=N\OCCF)c3csc(N)n3)[C@H]2SC1 (some centres unmarked) ?
12.5

What do you get for `CO/N=C(\C(=O)N[C@@H]1C(=O)N2C(C(=O)[O-])=C(/C=C/C[N+](C)(C)Cc3scnc3C)CS[C@H]12)c1csc(N)n1` ?
12.5

###

system: Klebsiella aerogenes 1082E; assay: MIC by agar dilution, in vitro activity test; type: cell-based; conditions: 37° C., 18 to 20 hours, read-out: Minimal Inhibitory Concentration (MIC)
property-measured: MIC (µg/mL)
Write it as a number; the unit µg/mL goes unstated.

Param item = CC[N+](C)(CC=CC(N)=O)C/C=C/C1=C(C(=O)[O-])N2C(=O)[C@@H](NC(=O)/C(=N\OC)c3nsc(N)n3)[C@H]2SC1 (some centres unmarked) ; retrieve measured MIC.
3.1

What do you get for CC[N+](C)(CC=CC(N)=O)C/C=C/C1=C(C(=O)[O-])N2C(=O)[C@@H](NC(=O)/C(=N\OC)c3csc(N)n3)[C@H]2SC1 (some centres unmarked) ?
3.1

What do you get for CO/N=C(\C(=O)N[C@@H]1C(=O)N2C(C(=O)O)=C(COC(C)=O)CS[C@H]12)c1csc(N)n1 [CTX, Cefotaxime, reference compound] ?
6.3

What do you get for CC[N+](C)(CC=CC(N)=O)C/C=C/C1=C(C(=O)[O-])N2C(=O)[C@@H](NC(=O)/C(=N\OCCF)c3csc(N)n3)[C@H]2SC1 (some centres unmarked) ?
3.1

What do you get for CC[N+](C)(CC=CC(N)=O)C/C=C/C1=C(C(=O)[O-])N2C(=O)[C@@H](NC(=O)/C(=N\OCCF)c3nsc(N)n3)[C@H]2SC1 (some centres unmarked) ?
3.1

What do you get for CO/N=C(\C(=O)N[C@@H]1C(=O)N2C(C(=O)[O-])=C(C[n+]3cccc4c3CCC4)CS[C@H]12)c1csc(N)n1 [CPR, Cefpirome, reference compound] ?
6.3

What do you get for `Cc1ncsc1C[N+](C)(C)C/C=C/C1=C(C(=O)[O-])N2C(=O)[C@@H](NC(=O)/C(=N\OCCF)c3nsc(N)n3)[C@H]2SC1` ?
3.1

What do you get for `CO/N=C(\C(=O)N[C@@H]1C(=O)N2C(C(=O)[O-])=C(/C=C/C[N+](C)(C)Cc3scnc3C)CS[C@H]12)c1csc(N)n1` ?
6.3
